Reported Cmax values are given for each entry in this list.
Assay: Pharmacokinetics in P. falciparum infected and uninfected humanized mice
Settings: NODscidβ2m^−/−, mouse, whole blood, po, 12.5 mg/kg, C max, uninfected (U) humanized mice, blood, oral 12.5 mg·kg^−1, mean (SD)
// note: answer is a bare numeric in ng/mL

Solved cases below.
CC[C@H]1OC(=O)[C@H](C)[C@@H](O)[C@H](C)[C@@H](O[C@@H]2O[C@H](C)C[C@H](N(C)C)[C@H]2OCCCNc2ccnc3ccccc23)[C@](C)(O)C[C@@H](C)CN[C@H](C)[C@@H](O)[C@]1(C)O [Compound 3]
83.8
CC[C@H]1OC(=O)[C@H](C)[C@@H](O[C@H]2C[C@@](C)(OC)[C@@H](O)[C@H](C)O2)[C@H](C)[C@@H](O[C@@H]2O[C@H](C)C[C@H](N(C)C)[C@H]2O)[C@](C)(O)C[C@@H](C)CN(CCCNc2ccnc3cc(Cl)ccc23)[C@H](C)[C@@H](O)[C@]1(C)O [Compound 1]
173

So, CC[C@H]1OC(=O)[C@H](C)[C@@H](O[C@H]2C[C@@](C)(OC)[C@@H](O)[C@H](C)O2)[C@H](C)[C@@H](O[C@@H]2O[C@H](C)C[C@H](N(C)C)[C@H]2O)[C@](C)(O)C[C@@H](C)CN(C)[C@H](C)[C@@H](O)[C@]1(C)O [Azithromycin, reference compound] ? Its Cmax was 243

* * *

Reported MIC values are given for each entry in this list.
Test system: H. influenzae ATCC49247
// note: answer is a bare numeric in µg/mL

CC[C@H]1OC(=O)[C@H](C)[C@@H](O[C@H]2C[C@@](C)(OC)[C@@H](O)[C@H](C)O2)[C@H](C)[C@@H](O[C@@H]2O[C@H](C)C[C@H](N(C)C)[C@H]2O)[C@](C)(O)C[C@@H](C)CN(CCCNc2ccnc3cc(Cl)ccc23)[C@H](C)[C@@H](O)[C@]1(C)O
16

As a next step, examine the compound that follows.
Readout MIC for CC[C@H]1OC(=O)[C@H](C)[C@@H](O[C@H]2C[C@@](C)(OC)[C@@H](O)[C@H](C)O2)[C@H](C)[C@@H](O[C@@H]2O[C@H](C)C[C@H](N(C)C)[C@H]2O)[C@](C)(O)C[C@@H](C)CN(C)[C@H](C)[C@@H](O)[C@]1(C)O [Azithromycin, reference compound] , test system H. influenzae ATCC49247, was 2

* * *

Test: Pharmacokinetic studies in rats
Type: in vivo, Sprague–Dawley rats
Details: male, Sprague-Dawley, whole blood, po; Rat, i.v. 2 mg·kg^−1, p.o. 10 mg·kg^−1, mean (SD)
ATTRIBUTE MEASURED: bioavailability
Just so you know, I need the unit written after the number.

So, CC[C@H]1OC(=O)[C@H](C)[C@@H](O)[C@H](C)[C@@H](O[C@@H]2O[C@H](C)C[C@H](N(C)C)[C@H]2OCCCNc2ccnc3ccccc23)[C@](C)(O)C[C@@H](C)CN[C@H](C)[C@@H](O)[C@]1(C)O [Compound 3] ? Its bioavailability was 1%

* * *

Assay: Pharmacokinetics in P. falciparum infected and uninfected humanized mice
Conditions: NODscidβ2m^−/−, mouse, in vivo, po, 10 mg/kg, C max, infected (I) humanized mice, blood, oral 10 mg·kg^−1, mean (SD)
ATTRIBUTE MEASURED: Cmax (ng/mL)
// note: answer is a bare numeric in ng/mL

So, CCN(CC)CCCC(C)Nc1ccnc2cc(Cl)ccc12 (stereo not shown) [Chloroquine, reference compound] ? Its Cmax was 210

Origin of values: paper PMC9328652
